B1: Kinesin-like protein KIF16B, residues 1213 to 1273; numbered along this chain, Q96L93 (parent)
chain: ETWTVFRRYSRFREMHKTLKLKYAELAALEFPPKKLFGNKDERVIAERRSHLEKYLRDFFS

variants of: B1; experiment: abundance fitness (aPCA) (normalised: wild type 0, dead -1); higher = more abundant; growth selection in yeast, the domain comes from the species named; conditions: Homo sapiens
MEASURED QUANTITY: abundance fitness
Enter the number alone.

{"VARIANT KEY": "L26K", "REPORTED VALUE": -0.279}
{"VARIANT KEY": "K20V", "REPORTED VALUE": -0.853}
{"VARIANT KEY": "N39H", "REPORTED VALUE": 0.05}
{"VARIANT KEY": "E47V", "REPORTED VALUE": -0.173}
{"VARIANT KEY": "F31Y", "REPORTED VALUE": -0.295}

Fill in: abundance fitness of "L19E" is ___
-0.917

Fill in: abundance fitness of "D41W" is ___
0.354

Fill in: abundance fitness of "S10H" is ___
-1.1

Fill in: abundance fitness of "P32F" is ___
0.329

Fill in: abundance fitness of "P33F" is ___
0.495

Fill in: abundance fitness of "F37H" is ___
-0.597
